Hello, the source for this data is PubChem BioAssay (NCATS), in case you need it.

- target.entity: Protein phosphatase 1D (Homo sapiens) (UniProt O15297)
- Sequence (O15297 whole entry, looked up): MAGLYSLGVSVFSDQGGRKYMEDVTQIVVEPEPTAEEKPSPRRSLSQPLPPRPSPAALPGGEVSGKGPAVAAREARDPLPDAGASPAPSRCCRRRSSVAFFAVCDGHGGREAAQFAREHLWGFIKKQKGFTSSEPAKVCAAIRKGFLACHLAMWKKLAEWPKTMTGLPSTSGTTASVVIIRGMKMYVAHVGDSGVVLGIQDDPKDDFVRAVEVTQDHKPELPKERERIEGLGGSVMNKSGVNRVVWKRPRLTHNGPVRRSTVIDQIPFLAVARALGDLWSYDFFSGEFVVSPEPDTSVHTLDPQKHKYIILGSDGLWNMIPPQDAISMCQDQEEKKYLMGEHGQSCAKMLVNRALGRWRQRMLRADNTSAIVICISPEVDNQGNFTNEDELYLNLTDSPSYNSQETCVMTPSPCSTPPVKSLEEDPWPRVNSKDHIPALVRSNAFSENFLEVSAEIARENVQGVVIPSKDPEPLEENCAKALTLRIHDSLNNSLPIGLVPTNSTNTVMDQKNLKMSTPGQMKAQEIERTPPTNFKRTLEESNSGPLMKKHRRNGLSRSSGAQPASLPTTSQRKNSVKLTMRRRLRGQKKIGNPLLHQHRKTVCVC
- assay.text: RapidFire Mass Spectrometry qHTS Assay for Modulators of WT P53-Induced Phosphatase 1 (WIP1) (AID 1347424);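 note: amount of dephosphorylated VEPPL-S-QETFS peptide product formed by WIP1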
- test.context: WIP1 dephosphorylation of phosphopeptide, RapidFire MS; series mostly up to 63 µM
Results filed as inconclusive are left out. The source made the active and inactive calls. Calls come from the whole dose curve; as a rule, active = well fitted inhibition curve with a large enough effect; inconclusive = small, poorly fitted or top-dose-only effect; inactive = no such curve, though single readings can be large or run the other way.
reported.metric: activity change, negative = inhibition

N#C/C(=C1/SC[C@@H](c2ccc(Cl)cc2Cl)S1)n1ccnc1 :: inactive
COC(=O)c1cc(Cl)c(NC(C)=O)cc1OC :: inactive
CCOC(=O)c1cc(=O)c2c(OCC(COc3cccc4oc(C(=O)OCC)cc(=O)c34)OC(=O)[C@@H](N)CCCCN)cccc2o1 :: inactive
CCOC(=O)c1ccc(OCCN2C[C@H](O)[C@@H](O)[C@H](O)[C@H]2CO)cc1 :: inactive
CN(C)[C@@H]1C(=O)C(C(N)=O)=C(O)[C@@]2(O)C(=O)C3=C(O)c4c(O)cccc4C[C@H]3C[C@@H]12 :: inactive
COc1ccc2nc(SCc3ncc(C)c(OC)c3C)[nH]c2c1 :: inactive

// next item, activity change, negative = inhibition requested
Entry `c1ccc2c(c1)CCc1ccccc1N2` needs its activity change, negative = inhibition filled in; supply it.
inactive
